tested on: THP-1; assay: cell viability (% survival relative to DMSO control, bortezomib = 0%); higher = less cytotoxic; conditions: 1000 nM; 72 h
Kindly state cell viability for each of the entries shown.
Give bare numbers, in %.

Below, each entry is followed by its recorded cell viability result.
For THP-1, provide cell viability of O=C(COc1ccc(C(=O)c2ccccc2)cc1)NC1CCN(Cc2ccccc2)CC1 [AdipoRon] please.
91.6

cell viability of O=C(O)CC[C@H](NC(=O)c1ccc([N+](=O)[O-])cc1)C(=O)O [(S)-2-(4-Nitrobenzamido)pentanedioic acid] on THP-1?
105

Short answer please: cell viability, THP-1, entry O=C1Oc2ccccc2C(=O)C1CC1C(=O)Oc2ccccc2C1=O (stereo not given) [Dicumarol]
103

Notebook entry, THP-1 assay: cell viability of COc1c(C)c2c(c(O)c1C/C=C(\C)CCC(=O)O)C(=O)OC2 [Mycophenolic acid] = ?
97.5

Lab request: please report cell viability under test system THP-1 for `CC(C)Cc1sc(N)nc1-c1ccc(P(=O)(O)O)o1`
104

Give recorded cell viability with THP-1 for the following compound: CCOc1ccc(Cc2cc([C@@H]3O[C@H](CO)[C@@H](O)[C@H](O)[C@H]3O)ccc2Cl)cc1 [Dapagliflozin]
101

Requested read-out cell viability, target or system THP-1, entry OCCN1CCN(CCCN2c3ccccc3Sc3ccc(Cl)cc32)CC1 [Perphenazine]
99.1

Param readout= cell viability; system= THP-1; entry= c1ccc2c(c1)OCC(=C1NCCN1)O2 [Idazoxan] ; returns value.
91.4

For each of the compounds below, state cell viability.
1. O=C(O)C(Cl)Cl [Dichloroacetate]
2. CCOC(=O)N1c2ccc(C(F)(F)F)cc2[C@@H](N(Cc2cc(C(F)(F)F)cc(C(F)(F)F)c2)C(=O)OC)C[C@H]1CC [Torcetrapib]

[95.8, 101]

====

Please respond with reported area under dose-response curve for every item in the list.
system: myeloid leukemia patient primary cells Pat.11; assay: area under dose-response curve (viability, 1 nM-10 uM) (fraction (0-1)); higher = more sensitive; details: 72 h
Numbers only.

Guide cases for area under dose-response curve, answers given:
Name the reported area under dose-response curve value associated with the molecule `CCN(CC)CCN(Cc1ccc(-c2ccc(C(F)(F)F)cc2)cc1)C(=O)Cn1c(SCc2ccc(F)cc2)nc(=O)c2c1CCC2`
0.137

Tell me the measured area under dose-response curve of `C[C@]12O[C@H](C[C@]1(O)CO)n1c3ccccc3c3c4c(c5c6ccccc6n2c5c31)CNC4=O` , please.
0.235

Query molecule follows.
Return reported area under dose-response curve; argument: `Cc1noc2c1-c1ccccc1C(c1ccc(Cl)cc1)=N[C@H]2CC(N)=O`
0.18

====

system: K-562; test: cell viability (% survival relative to DMSO control, bortezomib = 0%); higher = less cytotoxic; conditions: 1000 nM; 72 h
For each record, write down the corresponding cell viability.
Give bare numbers, in %.

Illustrative cases are given below, each with its answer.
Which cell viability value is on record for O=C(O)CCc1ccc(NCc2cccc(Oc3ccccc3)c2)cc1 [GW9508] ?
94.2

# input compound: CN(C)c1nc(O)c2[nH]cnc2n1 [2-Dimethylamino-6-hydroxypurine] ; wanted: its cell viability
117

Quick one: cell viability for C1CCC(C(CC2CCCCN2)C2CCCCC2)CC1.O=C(O)/C=C\C(=O)O (stereo not given) [Perhexiline] ?
103

GET /values?readout=cell viability&item= O=C(O)c1cc2sccc2[nH]1 [4H-thieno[3,2-b]pyrrole-5-carboxylic acid]
101

Next item in the queue.
Which cell viability is reported for this compound? CCOC(=O)[C@@]1(CCCCCCOc2ccc(Cl)cc2)CO1 [Etomoxir]
93.2
